Entry source: the supplement of paper PMC6555819

# Test system: PPARg:RXRa 270nM:90nM, anti-RXR (NR concentration 270 nM, RXRa partner concentration 90 nM)
# assay.notes: PBM binding z-score (relative to random genomic background probes); higher = stronger binding; sequences stand for … in GC…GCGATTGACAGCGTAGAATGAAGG
Outcome: Yes for PBM binding z-score of at least 3; No for anything lower.

INPUT: Could you please find out whether CATCCAGGGTCAGCTAGGCCAGAGTAGGGACGGC has PBM binding z-score that meets 3 or exceeds it?
OUTPUT: Yes

INPUT: Could you please find out whether GCGACTGGGGCATAGCAGGTTACCATAAGGTTGG has PBM binding z-score that meets 3 or exceeds it?
OUTPUT: No

INPUT: Could you please find out whether TCCAGTAGGTTACCAATGGGGCATTCAGCTTTCT has PBM binding z-score that meets 3 or exceeds it?
OUTPUT: No

INPUT: Could you please find out whether CGTCCAAGGCCAATGCTAGGTCAGTGAAAGCATT has PBM binding z-score that meets 3 or exceeds it?
OUTPUT: No

INPUT: Could you please find out whether CCTAGTTGGTCAAGGTCAAACACGCTATAGGTAC has PBM binding z-score that meets 3 or exceeds it?
OUTPUT: Yes

INPUT: Could you please find out whether ATCTCTAGGTAAAGCTCAGTGAAAGATCGATAGA has PBM binding z-score that meets 3 or exceeds it?
OUTPUT: No

INPUT: Could you please find out whether AGAACGAGGGCACGCTGAGTTGATCGCAGAGTAG has PBM binding z-score that meets 3 or exceeds it?
OUTPUT: No

INPUT: Could you please find out whether CGTCAAACTTCAAGGTAACGTAACAGAAAGCAGC has PBM binding z-score that meets 3 or exceeds it?
OUTPUT: No

INPUT: Could you please find out whether GATACAGGGTCAGCTAGAGGCCTGAGTATGGAAA has PBM binding z-score that meets 3 or exceeds it?
OUTPUT: No

INPUT: Could you please find out whether AGAATGAGGTTATACGTAGATCAGGAAAGAAAGT has PBM binding z-score that meets 3 or exceeds it?
OUTPUT: No

INPUT: Could you please find out whether GCGACTGGGGCATCAGCAGGTCACCATAACTTAA has PBM binding z-score that meets 3 or exceeds it?
OUTPUT: No

INPUT: Could you please find out whether CCTACTGGACCACGAAAGGTCATTGATTCAGTGA has PBM binding z-score that meets 3 or exceeds it?
OUTPUT: Yes
